The reported measurements were obtained from patent US20240108632A1.

assay: Solubility by HP-β-CD concentration at pH adjustment; assay type: physicochemical; details: HP-β-CD 1.0 % w/v; purified water (pH 5.5)
QUANTITY: Solubility by HP-β-CD concentration (mg/mL)
Answers are plain numbers, in mg/mL.

# input compound: CC1CN(CC(=O)NC2C3CC4CC2CC(C(N)=O)(C4)C3)S(=O)(=O)N(c2c(Cl)cc(C(F)(F)F)cc2Cl)C1 (stereo not shown) ; wanted: its Solubility by HP-β-CD concentration
2.55

---

Test: Solubility by HP-β-CD concentration at pH adjustment
Assay type: physicochemical
Conditions: HP-β-CD 3.0 % w/v; phosphate buffer (pH 7.4)
Description: Various concentrations of HP-β-CD aqueous solutions were prepared by adding 1%, 2%, 3%, and 4% (w/v) of HP-β-CD to tertiary purified water (pH 5.5), pH 7.4 phosphate buffer, and 0.04 M NaOH aqueous solution (pH 12.5). An excess of KR-67607 was added to the above HP-β-CD solution and stirred for 24 hours, then the supernatant was collected and filtered through a 0.2 μm PVDF filter, and 1 mL was added to a 10 mL volumetric flask and labeled with methanol. […]
QUANTITY: Solubility by HP-β-CD concentration (µg/mL)
Give bare numbers, in µg/mL.

Fill in the blank: the reported Solubility by HP-β-CD concentration of CC1CN(CC(=O)NC2C3CC4CC2CC(C(N)=O)(C4)C3)S(=O)(=O)N(c2c(Cl)cc(C(F)(F)F)cc2Cl)C1 (stereo not shown) is ____.
6000

---

assay: Solubility by HP-β-CD concentration at pH adjustment; format: physicochemical; conditions: HP-β-CD 3.0 % w/v; 0.04M NaOH aqueous solution (pH 12.5)
QUANTITY: Solubility by HP-β-CD concentration (µg/mL)
One number for each entry, in µg/mL.

// query Solubility by HP-β-CD concentration value for entry CC1CN(CC(=O)NC2C3CC4CC2CC(C(N)=O)(C4)C3)S(=O)(=O)N(c2c(Cl)cc(C(F)(F)F)cc2Cl)C1 (stereo not shown) [KR-67607]
7900

---

Test: Solubility by HP-β-CD concentration at pH adjustment
Type: physicochemical
Conditions: HP-β-CD 4.0 % w/v; purified water (pH 5.5)
Protocol: Various concentrations of HP-β-CD aqueous solutions were prepared by adding 1%, 2%, 3%, and 4% (w/v) of HP-β-CD to tertiary purified water (pH 5.5), pH 7.4 phosphate buffer, and 0.04 M NaOH aqueous solution (pH 12.5). An excess of KR-67607 was added to the above HP-β-CD solution and stirred for 24 hours, then the supernatant was collected and filtered through a 0.2 μm PVDF filter, and 1 mL was added to a 10 mL volumetric flask and labeled with methanol. […]
QUANTITY: Solubility by HP-β-CD concentration (µg/mL)
Numbers only, in µg/mL.

Dear colleague, I am looking for the recorded Solubility by HP-β-CD concentration of the following compound: CC1CN(CC(=O)NC2C3CC4CC2CC(C(N)=O)(C4)C3)S(=O)(=O)N(c2c(Cl)cc(C(F)(F)F)cc2Cl)C1 (stereo not shown)
6910

---

assay: Solubility by HP-β-CD concentration at pH adjustment; type: physicochemical; settings: HP-β-CD 4.0 % w/v; phosphate buffer (pH 7.4)
QUANTITY: Solubility by HP-β-CD concentration (mg/mL)
Numbers only, in mg/mL.

# get_value(readout='Solubility by HP-β-CD concentration', item= CC1CN(CC(=O)NC2C3CC4CC2CC(C(N)=O)(C4)C3)S(=O)(=O)N(c2c(Cl)cc(C(F)(F)F)cc2Cl)C1 (stereo not shown) [KR-67607] )
6.79

---

assay: Solubility by HP-β-CD concentration at pH adjustment; assay type: physicochemical; details: HP-β-CD 2.0 % w/v; 0.04M NaOH aqueous solution (pH 12.5)
QUANTITY: Solubility by HP-β-CD concentration (µg/mL)
Answers are plain numbers, in µg/mL.

Return reported Solubility by HP-β-CD concentration; argument: CC1CN(CC(=O)NC2C3CC4CC2CC(C(N)=O)(C4)C3)S(=O)(=O)N(c2c(Cl)cc(C(F)(F)F)cc2Cl)C1 (stereo not shown)
5720

---

experiment: Solubility by HP-β-CD concentration at pH adjustment; assay type: physicochemical; conditions: HP-β-CD 1.0 % w/v; phosphate buffer (pH 7.4)
QUANTITY: Solubility by HP-β-CD concentration (µg/mL)
Numbers only, in µg/mL.

What Solubility by HP-β-CD concentration value was documented for this compound, CC1CN(CC(=O)NC2C3CC4CC2CC(C(N)=O)(C4)C3)S(=O)(=O)N(c2c(Cl)cc(C(F)(F)F)cc2Cl)C1 (stereo not shown) ?
2590

---

experiment: Solubility by HP-β-CD concentration at pH adjustment; assay type: physicochemical; settings: HP-β-CD 4.0 % w/v; 0.04M NaOH aqueous solution (pH 12.5)
QUANTITY: Solubility by HP-β-CD concentration
Lab note: write values as number then unit, every time.

I would be grateful if you could share the reported Solubility by HP-β-CD concentration for CC1CN(CC(=O)NC2C3CC4CC2CC(C(N)=O)(C4)C3)S(=O)(=O)N(c2c(Cl)cc(C(F)(F)F)cc2Cl)C1 (stereo not shown) [KR-67607] .
9.61 mg/mL

---

assay: Solubility by HP-β-CD concentration at pH adjustment; assay type: physicochemical; details: HP-β-CD 2.0 % w/v; purified water (pH 5.5)
QUANTITY: Solubility by HP-β-CD concentration (µg/mL)
Answers are plain numbers, in µg/mL.

Item under review: CC1CN(CC(=O)NC2C3CC4CC2CC(C(N)=O)(C4)C3)S(=O)(=O)N(c2c(Cl)cc(C(F)(F)F)cc2Cl)C1 (stereo not shown) . Reported Solubility by HP-β-CD concentration?
4230
